Test system: MCF10A
test: percent viability (nuclei count relative to siNT); higher = more viable cells
details: 20 nM; 72 h
Label 1 when percent viability is strictly below 40%; otherwise label 0.

// query For UAUAUGGACUUUUCUGAUACAAUG [hsa-miR-8076] , is the recorded percent viability below the cut-off of 40%?
// result 0

// query For ACAGGAGUGGGGGUGGGACAU [hsa-miR-4433-3p] , is the recorded percent viability below the cut-off of 40%?
// result 1

// query For GGGGCUGUGAUUGACCAGCAGG [hsa-miR-4675] , is the recorded percent viability below the cut-off of 40%?
// result 1

// query For UAAAGAGCCCUGUGGAGACA [hsa-miR-1276] , is the recorded percent viability below the cut-off of 40%?
// result 0

// query For AGAAGGCACUAUGAGAUUUAGA [hsa-miR-605-3p] , is the recorded percent viability below the cut-off of 40%?
// result 0

// query For GUUCUCCCAACGUAAGCCCAGC [hsa-miR-629-3p] , is the recorded percent viability below the cut-off of 40%?
// result 1
